# Assay notes: folding stability dG unfold from trypsin proteolysis; higher = more stable
Measure name: folding stability dG unfold (kcal/mol)
Give bare numbers, in kcal/mol.

- Primary sequence: "SAGFTIEIENEDGKKITFRFPGWKIEIYPKDGIIMMRYPEENMSIMIKVDPNKIKIQVYDGGKWRWFPISAG [r5_786_TrROS]"
  Readout units: "kcal/mol"
  folding stability dG unfold: 2.86

Look up folding stability dG unfold for the entries below, preserving their order.
1. SAGGSAGGMVTSTDPATGIVYSLDPTTGVWSAQTVTLPPITIPVSEVPELLKALPPGTPILVLASAGGSAGG [r6_104_JUSTAS]
2. SAGQPGKPIRKYTFDLPDDDKITVEVYMYPDGNMMIKIEDNNGKERNIMIPANDLQNMPIEDLVKWLRSAGG [r19_47_TrROS]
3. SLDPGEPVYRIKVKIEMWNPNGKPIAEFTIPIRTLEEAKEAIKEMAREIAEKMGHPDMPIRIKDIEIEPYSA [r9_376_TrROS]

RESULT:
1: 1.01; 2: 2.73; 3: 2.29

----------
# Assay notes: folding stability dG unfold from trypsin proteolysis; higher = more stable
Everything with folding stability dG unfold lower than 2 kcal/mol is false (0); everything else, including exactly 2 kcal/mol, is true (1).

- Primary sequence: "SAGPWITIPFKVKSLEEARNIIREIAQTFGLPMKVEDIQVTEDQLEKNREPGDPIRITVRYPNGREIEISAG [r5_503_TrROS]"
  Class: "false (0)"
- Primary sequence: "SGPALEILRAASEEEGVPVLAEVVPDADGNPVIPAVVWSPEDIEAGELPGEVKEAPITVDGKTYRVVLFASA [r9_489_TrMRF]"
  Class: "false (0)"
- Primary sequence: "SAGGSAGGDGLELKLTFTIPVTARSPLGGSYPVYLRLTLTYRLDDPRWELDLYALDPNGNWYPVSAGGSAGG [r6_393_TrMRF]"
  Class: "true (1)"
- Primary sequence: "SAGGSAGGSAGMRTVEVKVVFKEGDKEFEKTITITLSPDDPSLEERAKEIAEKGIVVEIIRSAGGSAGGSAG [r3_30_JUSTAS]"
  Class: "false (0)"

Now let's try a different one.
QUERY: Dear colleague, could you confirm whether SAGGSAGGSAGMTVEVVKSVVPTKTNETVIVTTVTEVEPPTGKVTTLETKTVSTANPELLSAGGSAGGSAGG [r11_777_JUSTAS] has folding stability dG unfold at or above 2 kcal/mol?
RESULT: false (0)

----------
# Assay notes: folding stability dG unfold (combined trypsin and chymotrypsin); higher = more stable
Measure name: folding stability dG unfold (kcal/mol)
Numbers only, in kcal/mol.

Example entries and their recorded answers appear below.
- Primary sequence: "SAGGSAGGSAGGIKITPDIRELLRQQGKPFSEEEIQGIAKYIAKHFKEKGFEDVTIRIPWSAGGSAGGSAGG [r7_512_TrROS]"
  folding stability dG unfold / kcal/mol: 0.774
- Primary sequence: "SAGGSAGGSAGGSMLPPDTTVTSTTFLPNGTVVNTTTTYTATPDDTYTVTTTTTTTPLTSSAGGSAGGSAGG [r7_249_JUSTAS]"
  folding stability dG unfold / kcal/mol: 0.766
- Primary sequence: "SAGGMITTSTLSDGTTVVTIRVPGSPEEADAVAEEVREALLAAGYRTVEVSREPVEDGWVVTITTVSSAGGS [r8_113_JUSTAS]"
  folding stability dG unfold / kcal/mol: 3.71
- Primary sequence: "SAGGSAGGSAGKIKIKNEDGSEYEVKKIEITIKNENGEKKKIKLEIELPKAKEVKIEKKKSAGGSAGGSAGG [r11_804_TrROS_Hall]"
  folding stability dG unfold / kcal/mol: -0.13

Look up folding stability dG unfold for the entries below, preserving their order.
1. SAGGSAGGSAGGTIRDAVKEGKPFKIRMRGKKGKTHTVTIRPDKPVKLPGISSIQVERDSAGGSAGGSAGGS [r10_700_TrROS]
2. SAGGSAGGSAMEILSKEIIPNNDLIIIDIKVKKKNKEYIYKLIIKGDKIIKISEIEIDDAPSAGGSAGGSAG [r3_48_TrMRF]
3. SAGVVEITFEVPETGEPFTLVIDEDGNVTGRWPSTGDEQEWKLGDKVITFPPNMSPELAAELEKEALSESAG [r14_561_TrMRF]
4. SAGGSAGGSAGGMYVAVVTRPDGSRLVVETEPGEEIELFTEDGRPLGITAVAPVDEEAFSAGGSAGGSAGGS [r10_422_TrMRF]
5. SDKVVIHFYPGMPVSNIVERVADNPDMTIEIVMPPGMKPSWYNYIRKALRDANIPKDQKVEIEWVPYDDMSA [r9_670_TrROS]

RESULT:
-0.707
2.15
0.644
0.227
3.59

Look up folding stability dG unfold for the entries below, preserving their order.
1. SAGGSAGGSPKPIPIKIDEVWPNPDNGKDYIVKIEFPDGKKHTFTSPEDIRKLPGFDVEVYELSAGGSAGGS [r20_192_TrROS]
2. SAGGNIKIEVYRSPDYYMIRIKLDGKPYEIPIDPGNTEEEAAEQALDNLQEKFPDKPIKIKDVEIYPYSAGG [r13_884_TrROS]
3. SAGGSAGGEERVRLPITLEVPVPLAPVLLVSPDGSERLVPLPSVTLRITLELELTKEEWEKLLSSAGGSAGG [r6_119_TrMRF]
4. ATVTITDVSFDPETNTITVTVTVTGPDGTTTTFTATFRIEPAPPPAPPAPVYVVDDDGKVYNLDTGEWKDVS [r1_270_TrROS_Hall]
5. SGPFQFFVKIEYKGKNGKTQERELPINMPPGDFDKFIEEILDDPNLEGADDVEIDVYMAGTGRPQEIEIPSA [r9_97_TrROS]
6. SAGGSAGMPLVTAPVTRDPNSDVVTLTVYDPRTGETHTYTSPGSVEEAVEAFREATGLPISEVVLESAGGSA [r15_101_JUSTAS]

RESULT:
0.621
0.566
3.16
2.21
1.07
1.51

Look up folding stability dG unfold for the entries below, preserving their order.
1. SAGGSAGGSAGGGSMPVTERIPGSPSSVTTTTFPDGTVTTETTAGPPVTLSPAGGSTLVSAGGSAGGSAGGS [r10_664_JUSTAS]
2. SAGGSAGGSAGMETTVLEEVPPEELAKGQTRLEKLPDGTIIERTVAPEGEVVETKTIPPKSAGGSAGGSAGG [r17_2_JUSTAS]
3. SAGGAFIKDFDVEEDPNGHRKFKFELPNGWKYDITIHPDFPQIEIKPIKPIEPPPIPADDPEQAEEQSAGGS [r16_482_TrROS]
4. SAGGSAGGKWIHINPNSYNIKIQDPGSGKEEEIQFDSPEELIDEIKKQFPGVPVEIHPNGWFKISAGGSAGG [r6_288_TrROS]
5. SAGMETVTVEVDGATITFVKNEDGTVTAIVTYPNGEVEIYNADGELIRRERLPNGLVVFEFTKEELEKLSAG [r5_457_TrROS_Hall]
6. SAGGSAGGSLVLPDDYKVIVREFDLSDVGRAVREVMEEFDVKDALFLAVPLPGKVLLFVVVKESAGGSAGGS [r12_929_TrMRF]
7. SAGPPPWMVIRIPFWVKVTPDDGIITIEFKIEIGNKEFKIKITIPIPPELADAPPGETIPIPIWIFIRPSAG [r5_714_TrROS]
8. SAGGSAGGSAMTVLVMEIKIELRVNEDGSLELRMEIEIKPVEPITLEELAEKLGLSKEELLSAGGSAGGSAG [r3_338_TrROS_Hall]

RESULT:
1: 1.08; 2: 1.09; 3: 0.552; 4: 0.521; 5: 1.93; 6: 2.99; 7: 4.81; 8: 3.03

Form field folding stability dG unfold, entry SAMPLEDMTPEQAEEFAKEFINRFQQENQKKGGPIPPGQEIEIPVRYKGGPVYIKITVTNPGNINIEVESAG [r14_501_TrROS] : 0.663

----------
# Assay notes: folding stability dG unfold from chymotrypsin proteolysis; higher = more stable
Measure name: folding stability dG unfold (kcal/mol)
Numbers only, in kcal/mol.

Example entries and their recorded answers appear below.
- Primary sequence: "SAGGSAGGSAGMPLYIIEVEKEDGSKITITIPENMTEEEIKKIAEELGIKKVEIIKKEDLSAGGSAGGSAGG [r11_490_TrROS_Hall]"
  Readout units: "kcal/mol"
  folding stability dG unfold: 1.8
- Primary sequence: "SAGGSAGGSAGGKLIVLPVTSDEVFDFGDGPIPVPAGSIVVLEISPDGAKALVFSPEDLSAGGSAGGSAGGS [r10_353_TrMRF]"
  Readout units: "kcal/mol"
  folding stability dG unfold: 0.886

Look up folding stability dG unfold for the entries below, preserving their order.
1. SAGGSAKWELSIWIPAPGMTPDKARELARDIAREFAQPGWKVKDIEVEPVNPDENVYRGTVTIEPPSAGGSA [r15_96_TrROS]
2. SAGGKMSLEDIKEVKITKISEEELKKNGTIKIEIYNKNGKLIKTIEIKIKPVKVKDKDGKEKTLEELKSAGG [r13_864_TrROS_Hall]
3. SAGWRQILDMARNMLENGHMFRIEWTGPGGKPQEFRIPLDDIETLLDNWPDPDDIRSVDIEVYPPGEPISAG [r5_957_TrROS]

RESULT:
1: 1.82; 2: 1.49; 3: 2.45

Look up folding stability dG unfold for the entries below, preserving their order.
1. SAGGSAGGSAMKTLVIEGLSLEEIEELAKEIPGKTVRIVFKDGSVITIYPDGKIEIEPLPESAGGSAGGSAG [r3_269_TrROS_Hall]
2. SAGGSAGGPLVVGRGTFPDGFTADAELRVPDSSETFYRTIEPGASLDEIPENYEVANITLSPAGSAGGSAGG [r6_758_TrMRF]
3. SAGKKKKKVKKKTVKLTITVKLKPGMTEEEALEKVKELAKALLPPGAKIKEVKFDKETKTVTVEIELTSAGG [r19_81_TrROS_Hall]
4. SAGGSAKLSAEEIAKLLKKLFPEVKEIKVKVEVNGKLYEVKIKVEKVKKKEKKKVEGMSEEEKKKLSAGGSA [r15_156_TrROS_Hall]

RESULT:
[2.64, -0.176, 2, 2.33]

Look up folding stability dG unfold for the entries below, preserving their order.
1. SMLVSVTFPLTLEPEEGDHTVRIYATAPDGSSLGEVTAPVKAVGDKVEFEVTATFPLPEGAVIERIETEPSA [r9_292_TrMRF]
2. SAGLKVESQTYDPATGTATVTPPLEGVPPDYTITVTDTATGKKTTLPPDGDVTLSNPTGPVTVTLTRPASAG [r14_134_JUSTAS]
3. SAGGIEVDPEHKHVHIHIPNGNIPELLDLIEDAPGDHVSIHFYNPGNGKPRRFTMPRKEARKFLEQFSAGGS [r16_797_TrROS]
4. SAGGSEGMTVTELVKPPDSDEVLYVATDSAGNTFTLPGSLVKEALENGKTVEAPRPDGTAATLVLRSAGGSA [r2_301_JUSTAS]
5. PKIEITRVEYHPNEGYYRVTVKLPGKDVSIYMGPENGMMQVYFPGNGREREFPFDSMDDAVDRAKELLKERS [r1_177_TrROS]
6. SAGGSAHPVQFPNGQEFPIRNPKNGKDFKIRMEQEDGPMRAEIEYPGGGKKRRIDGPMSLEEALKQSAGGSA [r15_234_TrROS]
7. SAGGLEEKILEAVKNMSPEEPVVEREVELPDGKLKVTVTRDGLPYTVTITRTNPDGTTTTTTTTILLSAGGS [r16_642_JUSTAS]

RESULT:
1: 0.857; 2: 0.354; 3: 0.834; 4: 3.5; 5: 1.55; 6: 0.509; 7: 2.37
